Target: T1, Dimeric Human Ang-2FD conjugated to human IgG1 (human)
T1 construct: also called Human Ang-2FD-hFc; hAng-2FD-hFc
T1 sequence (chain, as listed by the source limits assumed): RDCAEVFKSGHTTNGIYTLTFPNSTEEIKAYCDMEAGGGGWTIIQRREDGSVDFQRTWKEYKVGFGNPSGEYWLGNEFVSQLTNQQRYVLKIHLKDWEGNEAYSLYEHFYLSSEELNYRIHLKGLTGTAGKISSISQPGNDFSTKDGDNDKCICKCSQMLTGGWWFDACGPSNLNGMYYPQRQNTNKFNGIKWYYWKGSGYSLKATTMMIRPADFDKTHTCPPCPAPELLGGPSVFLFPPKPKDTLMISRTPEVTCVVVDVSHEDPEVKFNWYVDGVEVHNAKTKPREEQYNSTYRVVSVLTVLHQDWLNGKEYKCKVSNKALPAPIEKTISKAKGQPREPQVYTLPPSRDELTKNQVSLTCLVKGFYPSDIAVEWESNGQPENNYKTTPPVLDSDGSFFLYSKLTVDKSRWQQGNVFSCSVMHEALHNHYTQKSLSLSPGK
Test: SPR, captured Ab, RT
measured-endpoint: T1/2 (h)
Reply with just the number (in h).

State, in one line, measured T1/2 of H2M743N (antibody, V domains shown) VH: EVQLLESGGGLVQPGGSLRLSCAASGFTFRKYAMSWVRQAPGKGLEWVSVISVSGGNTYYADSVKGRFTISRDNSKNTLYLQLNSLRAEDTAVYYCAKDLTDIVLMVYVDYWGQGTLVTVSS VL: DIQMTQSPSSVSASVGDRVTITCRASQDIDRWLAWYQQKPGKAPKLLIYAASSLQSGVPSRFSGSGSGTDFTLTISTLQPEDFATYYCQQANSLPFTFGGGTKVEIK
2.78

State, in one line, measured T1/2 of H2M742N (antibody, V domains shown) VH: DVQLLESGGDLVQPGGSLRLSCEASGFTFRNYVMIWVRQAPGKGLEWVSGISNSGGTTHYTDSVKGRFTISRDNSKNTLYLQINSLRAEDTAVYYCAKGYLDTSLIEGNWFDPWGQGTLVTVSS VL: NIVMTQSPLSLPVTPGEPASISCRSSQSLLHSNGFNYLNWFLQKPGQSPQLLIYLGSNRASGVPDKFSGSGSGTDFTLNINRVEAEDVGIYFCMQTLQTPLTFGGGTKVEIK
0.633

State, in one line, measured T1/2 of H1H742N (antibody, V domains shown) VH: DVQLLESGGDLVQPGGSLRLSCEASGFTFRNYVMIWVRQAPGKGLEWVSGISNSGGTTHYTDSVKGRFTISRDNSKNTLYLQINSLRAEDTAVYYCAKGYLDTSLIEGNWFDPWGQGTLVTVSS VL: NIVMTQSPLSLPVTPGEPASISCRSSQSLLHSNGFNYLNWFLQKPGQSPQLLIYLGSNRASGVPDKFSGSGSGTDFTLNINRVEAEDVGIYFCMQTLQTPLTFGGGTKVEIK
1.08

State, in one line, measured T1/2 of H1H706P (antibody, V domains shown) VH: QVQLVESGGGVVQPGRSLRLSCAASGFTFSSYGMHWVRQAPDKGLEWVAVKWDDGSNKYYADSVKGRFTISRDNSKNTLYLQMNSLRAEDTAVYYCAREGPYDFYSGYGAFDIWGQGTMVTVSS VL: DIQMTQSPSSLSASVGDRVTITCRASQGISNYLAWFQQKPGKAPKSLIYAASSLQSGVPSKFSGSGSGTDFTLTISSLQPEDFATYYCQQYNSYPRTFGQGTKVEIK
0.84

State, in one line, measured T1/2 of H1H749N (antibody, V domains shown) VH: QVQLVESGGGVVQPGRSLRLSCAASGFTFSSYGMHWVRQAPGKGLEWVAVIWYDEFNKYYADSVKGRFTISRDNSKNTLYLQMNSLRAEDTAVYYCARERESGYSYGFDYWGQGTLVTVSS VL: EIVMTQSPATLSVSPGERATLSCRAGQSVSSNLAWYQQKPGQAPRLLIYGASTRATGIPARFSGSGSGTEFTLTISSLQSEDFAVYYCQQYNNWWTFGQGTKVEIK
1.82

State, in one line, measured T1/2 of H1H695P (antibody, V domains shown) VH: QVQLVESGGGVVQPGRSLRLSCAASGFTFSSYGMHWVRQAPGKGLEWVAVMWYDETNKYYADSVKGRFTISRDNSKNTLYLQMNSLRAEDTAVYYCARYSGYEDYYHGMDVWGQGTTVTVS VL: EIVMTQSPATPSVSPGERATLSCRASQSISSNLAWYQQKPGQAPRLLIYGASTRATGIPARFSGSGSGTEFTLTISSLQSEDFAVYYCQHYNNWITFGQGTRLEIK
2.45

State, in one line, measured T1/2 of H1H704P (antibody, V domains shown) VH: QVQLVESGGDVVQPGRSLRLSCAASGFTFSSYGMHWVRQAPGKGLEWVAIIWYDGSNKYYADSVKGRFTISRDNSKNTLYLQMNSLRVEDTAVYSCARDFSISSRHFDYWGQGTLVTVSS VL: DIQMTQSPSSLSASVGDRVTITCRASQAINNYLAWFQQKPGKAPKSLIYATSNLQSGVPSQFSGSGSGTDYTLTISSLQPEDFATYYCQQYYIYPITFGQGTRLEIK
1.43

State, in one line, measured T1/2 of H1H744N (antibody, V domains shown) VH: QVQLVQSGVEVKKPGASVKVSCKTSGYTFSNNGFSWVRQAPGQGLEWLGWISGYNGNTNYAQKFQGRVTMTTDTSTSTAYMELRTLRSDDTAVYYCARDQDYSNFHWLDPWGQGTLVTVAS VL: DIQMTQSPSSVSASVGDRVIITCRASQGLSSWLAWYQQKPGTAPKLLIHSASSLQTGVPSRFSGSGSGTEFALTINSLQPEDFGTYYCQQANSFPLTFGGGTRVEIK
2.12

State, in one line, measured T1/2 of H1H730N (antibody, V domains shown) VH: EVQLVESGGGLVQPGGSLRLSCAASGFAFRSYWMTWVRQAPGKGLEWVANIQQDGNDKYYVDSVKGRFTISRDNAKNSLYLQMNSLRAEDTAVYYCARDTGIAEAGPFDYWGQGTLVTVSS VL: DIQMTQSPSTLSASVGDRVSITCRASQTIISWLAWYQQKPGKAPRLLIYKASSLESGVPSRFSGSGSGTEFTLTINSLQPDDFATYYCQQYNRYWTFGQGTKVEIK
1.03

State, in one line, measured T1/2 of H1H691P (antibody, V domains shown) VH: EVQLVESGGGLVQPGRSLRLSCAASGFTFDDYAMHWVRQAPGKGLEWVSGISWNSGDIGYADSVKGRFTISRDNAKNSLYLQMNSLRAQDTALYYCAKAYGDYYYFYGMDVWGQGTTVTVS VL: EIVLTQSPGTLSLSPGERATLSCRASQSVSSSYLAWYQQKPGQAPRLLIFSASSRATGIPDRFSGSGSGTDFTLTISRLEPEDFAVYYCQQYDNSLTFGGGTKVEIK
0.642
